Kindly supply the reported koff values for the records listed here.
TGT: T1, human FLT3 (human, UniProt P36888 27-541, limits assumed)
T1 construct: Soluble analyte hFLT3 in SPR; also called hFLT3; huFlt3
T1 sequence: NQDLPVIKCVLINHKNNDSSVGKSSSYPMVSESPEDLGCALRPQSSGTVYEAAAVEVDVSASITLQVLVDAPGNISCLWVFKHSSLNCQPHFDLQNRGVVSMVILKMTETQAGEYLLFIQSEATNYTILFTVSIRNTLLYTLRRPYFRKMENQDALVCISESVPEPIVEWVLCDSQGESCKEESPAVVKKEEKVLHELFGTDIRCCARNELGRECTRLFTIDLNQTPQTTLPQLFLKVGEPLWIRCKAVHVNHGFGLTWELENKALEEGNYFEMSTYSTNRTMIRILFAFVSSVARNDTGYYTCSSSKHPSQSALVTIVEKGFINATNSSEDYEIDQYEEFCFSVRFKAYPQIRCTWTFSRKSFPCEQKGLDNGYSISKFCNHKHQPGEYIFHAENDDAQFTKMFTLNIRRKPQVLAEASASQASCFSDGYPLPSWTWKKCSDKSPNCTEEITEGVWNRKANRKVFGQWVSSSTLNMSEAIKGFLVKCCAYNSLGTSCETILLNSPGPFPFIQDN
PROTOCOL: SPR Biacore T200, 37C; scFv format
Give the number; s⁻¹ is assumed, so skip it.

Exam item: Kindly indicate its recorded koff. Item: P14G2 (scFv format) (scFv) scFv: EVQLLESGGGLVQPGGSLRLSCAASGFTFSNYVMNWVRQAPGKGLEWVSAISGSGATTYYADSVKGRFTISRDNSKNTLYLQMNSLRAEDTAVYYCVSGLWAGGIWGQGTLVTVSSGGGGSGGGGSGGGGSDIQMTQSPSSLSASVGDRVTITCRASQSISSYLNWYQQKPGKAPKLLIYDASDLQRGVPSRFSGSGSGTDFTLTISSLQPEDFATYYCQQSYNTPWTFGQGTKVEIK
Marked response: 0.000305

Exam item: Output measured koff for this item: P4H11 (scFv format) (scFv) scFv: EVQLLESGGGLVQPGGSLRLSCAASGFTFSSYAMNWVRQAPGKGLEWVSSISGGGRSTYYADSVKGRFTISRDNSKNTLYLQMNSLRAEDTAVYYCARDLSPSDVGWGYGFDIWGQGTLVTVSSGGGGSGGGGSGGGGSEIVLTQSPGTLSLSPGERATLSCRASQSVSNTYLAWYQQKPGQAPRLLIYDTSSRATGIPDRFSGSGSGTDFTLTISRLEPEDFAVYYCQQYGSSLTFGQGTKVEIK
Marked response: 0.00933

Exam item: Identify measured koff corresponding to P5A3 (scFv format) (scFv, not shown: a dimerising Fc or GST; small tags and cut ends) scFv: QVQLVQSGAEVKKPGSSVKVSCKASGGTFSSYYIGWVRQAPGQGLEWMGGIIPWFGTANYAQKFQGRVTITADKSTNTAYMELSSLRSEDTAVYYCAADHHDSPSGYTSGGFDVWGQGTLVTVSSGGGGSGGGGSGGGGSQSALTQPASVSGSPGQSITISCTGTSSDVGGYNYVSWYQQHPGKAPKLMIYEVSKRPSGVPDRFSGSKSGNTASLTVSGLQAEDEADYYCSSYAGSNTVVFGGGTKLTVL
Marked response: 0.0175

Exam item: Specify reported koff for the binder shown: P9B5 (scFv format) (scFv, not shown: a dimerising Fc or GST; small tags and cut ends) scFv: EVQLLESGGGLVQPGGSLRLSCAASGFIFASYAMSWVRQAPGKGLEWVSEISSSGGSTTYADSVKGRFTISRDNSKNTLYLQMNSLRAEDTAVYYCARDRVMAGLGYDPFDYWGQGTLVTVSSGGGGSGGGGSGGGGSQSVLTQPPSASGTPGQRVTISCSGSSSNIGSNYVYWYQQLPGTAPKLLIYRNNQRPSGVPDRFSGSKSGTSASLAISGLRSEDEADYYCAAWDDSLSGVVFGGGTKLTVL
Marked response: 0.000687

Exam item: Indicate its recorded koff; the binder in question is P9F1 (scFv format) (scFv, not shown: a dimerising Fc or GST; small tags and cut ends) scFv: EVQLLESGGGLVQPGGSLRLSCAASGFIFSSFAMSWVRQAPGKGLEWVSDISGSGASTYYADSVKGRFTISRDNSKNTLYLQMNSLRAEDTAVYYCASASGGSGSYWPYMDPWGQGTLVTVSSGGGGSGGGGSGGGGSQSVLTQPPSASGTPGQRVTISCSGSGSNIGSNYVYWYQQLPGTAPKLLIYRNNQRPSGVPDRFSGSKSGTSASLAISGLRSEDEADYYCAAWDGSLSRPVFGTGTKLTVL
Marked response: 0.0286
